Just for reference, ChEMBL document CHEMBL1201862 is where these values come from.

Molecular target: Luciferin 4-monooxygenase (Photinus pyralis)
Sequence (P08659 whole entry): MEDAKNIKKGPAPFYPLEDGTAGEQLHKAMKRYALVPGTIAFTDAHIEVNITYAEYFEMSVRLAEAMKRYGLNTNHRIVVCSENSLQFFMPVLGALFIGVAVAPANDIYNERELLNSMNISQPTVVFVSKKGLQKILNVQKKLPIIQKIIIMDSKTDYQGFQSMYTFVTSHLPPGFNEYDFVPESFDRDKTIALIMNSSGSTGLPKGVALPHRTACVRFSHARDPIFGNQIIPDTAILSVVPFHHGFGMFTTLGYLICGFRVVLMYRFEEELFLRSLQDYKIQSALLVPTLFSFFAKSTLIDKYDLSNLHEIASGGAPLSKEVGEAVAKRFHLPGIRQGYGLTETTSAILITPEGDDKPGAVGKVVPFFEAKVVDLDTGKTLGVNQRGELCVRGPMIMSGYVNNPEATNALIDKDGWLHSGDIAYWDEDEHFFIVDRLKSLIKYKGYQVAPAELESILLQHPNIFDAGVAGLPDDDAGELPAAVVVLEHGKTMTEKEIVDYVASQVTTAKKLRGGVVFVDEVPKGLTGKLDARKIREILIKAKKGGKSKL
Assay: firefly luciferase enzyme inhibitors, dose response, biochemical, luminescence (AID 1891)
The source made the active and inactive calls.
attribute_measured: EC50

Here is how some compounds turned out for EC50.
COc1ccc(C(C)NC(=O)c2ccccc2Cl)cc1OC (configuration not stated) ... > 112 µM (not active)
COc1cccc(C(=O)/C=C/Nc2cccc(O)c2)c1 ... 1.38 µM (active)
Brc1ccc(-c2nc(N/N=C/c3cccnc3)c3ccccc3n2)cc1 ... 0.248 µM (active)
O=C1C=C(c2ccccc2)C(=O)N1Nc1ccccc1 ... > 112 µM (not active)
COc1ccc(-c2nc(CSCC(=O)N3CCN(c4cccc(C)c4)C(C)C3)c(C)o2)cc1OC (configuration not stated) ... > 112 µM (not active)

Look up EC50: `O=C(Nc1nnc(-c2cccnc2)s1)c1cccs1` 22.6 µM (active)

* * *

Target: Streptokinase A (Streptococcus pyogenes serotype M1, UniProt P10520)
Sequence (P10520 whole entry): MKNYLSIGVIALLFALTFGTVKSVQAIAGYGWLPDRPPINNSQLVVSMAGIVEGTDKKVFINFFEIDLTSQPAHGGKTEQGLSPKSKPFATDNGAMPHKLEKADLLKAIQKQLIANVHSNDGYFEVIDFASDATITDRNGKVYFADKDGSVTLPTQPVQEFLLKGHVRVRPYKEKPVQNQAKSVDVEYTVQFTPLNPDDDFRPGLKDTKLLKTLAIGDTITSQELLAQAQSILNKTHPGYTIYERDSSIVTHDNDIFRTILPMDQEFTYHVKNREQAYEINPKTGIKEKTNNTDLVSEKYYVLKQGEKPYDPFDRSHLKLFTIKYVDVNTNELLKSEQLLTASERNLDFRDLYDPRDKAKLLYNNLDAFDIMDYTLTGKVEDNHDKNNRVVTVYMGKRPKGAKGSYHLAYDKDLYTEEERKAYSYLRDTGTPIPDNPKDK
Assay: S. pyogenes streptokinase expression inhibitors, potency, dose response, plasminogen activation absorbance, OD405 (AID 1914);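 also: secreted streptokinase activity via plasminogen activation per viability signal from cell pellet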
Type: functional, Streptococcus pyogenes M1 GAS
Activity calls are given as the source filed them.
# EC50 annotations

Here is how some compounds turned out for EC50.
Cc1ccc(C(=O)NC(=S)NNC(=O)c2cccc([N+](=O)[O-])c2)cc1 ... > 150 µM (not active)
S=C(NCc1cccs1)Nc1cc(Cl)cc(Cl)c1 ... > 150 µM (not active)
CC(=O)NNC(=S)NC(=O)C(c1ccccc1)c1ccccc1 ... > 150 µM (not active)
C[C@@]12CCC=C[C@H]1[C@H](c1ccc3ccccc3c1Br)N(Cc1ccccc1)C2=O ... 5.76 µM (active)

Look up EC50: `O=C(Nc1cccc(Cl)c1)Nc1csc([N+](=O)[O-])c1` > 150 µM (not active)

* * *

Molecular target: Prothrombin (Homo sapiens, UniProt P00734)
Test: Thrombin 1536 HTS Dose Response Confirmation. [Related pubchem assays: 1046 (Thrombin 1536 HTS; hits were confirmed in this assay)]
Format: functional
Active and inactive are the calls of the source.
attribute_measured: IC50

Here is how some compounds turned out for IC50.
O=C(CC(c1ccc(F)cc1)c1ccco1)N1CCOCC1 (stereo not given) ... > 50 µM (not active)
Cn1c(SCC(=O)NN=C(S)Nc2ccccc2)nnc1-c1ccncc1 ... > 50 µM (not active)
CCn1c(C)nc2cc(C(=O)N/N=C(\C)c3ccc(OC)cc3O)ccc21 ... > 50 µM (not active)
O=C(COC(=O)c1n[nH]c2ccccc12)Nc1cccc(S(=O)(=O)N2CCOCC2)c1 ... 1.11 µM (active)

// below: IC50 requested for another compound
Identify the measured IC50 of `O=C(CCc1ccccc1)n1nc(-c2ccco2)nc1SCc1ccccc1` for Prothrombin (Homo sapiens, UniProt P00734). 0.133 µM (active)

* * *

Biological target: Methionyl-tRNA synthetase, putative (Trypanosoma brucei brucei)
Sequence (Q38C91 whole entry): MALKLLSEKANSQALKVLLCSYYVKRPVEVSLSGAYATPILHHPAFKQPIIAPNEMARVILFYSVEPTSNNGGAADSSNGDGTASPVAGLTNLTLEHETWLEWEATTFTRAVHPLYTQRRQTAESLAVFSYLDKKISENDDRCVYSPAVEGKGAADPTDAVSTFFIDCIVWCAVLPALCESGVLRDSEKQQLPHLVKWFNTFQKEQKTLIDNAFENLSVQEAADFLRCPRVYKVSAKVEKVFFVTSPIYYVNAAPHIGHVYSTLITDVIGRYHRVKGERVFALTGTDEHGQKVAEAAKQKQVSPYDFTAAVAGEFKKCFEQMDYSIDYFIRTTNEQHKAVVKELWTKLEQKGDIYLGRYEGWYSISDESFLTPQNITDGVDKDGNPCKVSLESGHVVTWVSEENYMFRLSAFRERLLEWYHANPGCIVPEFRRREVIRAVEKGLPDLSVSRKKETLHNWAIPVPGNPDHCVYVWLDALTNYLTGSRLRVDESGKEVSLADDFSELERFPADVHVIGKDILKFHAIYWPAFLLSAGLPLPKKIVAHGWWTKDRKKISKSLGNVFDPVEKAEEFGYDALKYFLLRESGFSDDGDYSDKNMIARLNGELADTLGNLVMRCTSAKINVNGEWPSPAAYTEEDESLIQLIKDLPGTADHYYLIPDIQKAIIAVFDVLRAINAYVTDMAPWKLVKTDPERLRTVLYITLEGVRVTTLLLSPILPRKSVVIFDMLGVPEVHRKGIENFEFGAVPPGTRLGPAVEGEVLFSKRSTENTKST
Format: functional, Trypanosoma brucei brucei strain 927/4 GUTat10.1
Active and inactive are the calls of the source.
I would appreciate it if you answered using one of these outcomes: Y = active, N = inactive

Example results:
O=C(NCc1cccs1)c1cccc(Nc2nc3cc(Br)ccc3[nH]2)c1 ... N
COc1cc(CNc2[nH]cnc3c4cc(C)ccc4nc2-3)cc(OC)c1 ... Y
Cc1ccccc1Oc1cc(NC(=O)Cn2cnc([N+](=O)[O-])c2)cc([N+](=O)[O-])c1 ... N

Query compound follows.
Query: recorded result category for `S=C(NCc1cccs1)Nc1cc(Cl)cc(Cl)c1` in this test N

* * *

# EC50 annotations
Test system: BJ
Test: cells
Assay type: functional, cell-based
Details: Homo sapiens
The source made the active and inactive calls.

Oc1ccc(/C=N/Nc2nccnc2Cl)c(O)c1 ... 5.07 µM (active)
CCOc1ccc2c(c1)OC(c1ccc(C)cc1)(C(F)(F)F)NC2=O (centres undefined) ... 29.9 µM (inconclusive)
CCCCCCCCCn1c2c(c(=N)c3c1CCC3)CCC2 ... 2.07 µM (active)
COCCCNC(=O)Cc1c(C)c2c(cc(C)c3c(C(C)(C)C)coc32)oc1=O ... 19.3 µM (inconclusive)
O=C(O)CN1C(=O)/C(=C\c2cn(-c3ccccc3)nc2-c2ccccc2)SC1=S ... > 150 µM (not active)

Look up EC50: `COc1ccc(/C=C2\SC(=S)N(CC(=O)OCC(=O)Nc3cc(Cl)cc(Cl)c3)C2=O)cc1` > 150 µM (not active)

Look up EC50: `CCN1/C(=C\C=C\C2=[N+](CC)c3ccccc3C2(C)C)C(C)(C)c2ccccc21.[O-][Cl+3]([O-])([O-])[O-]` 0.664 µM (active)

Look up EC50: `O=[N+]([O-])c1ccc(Sc2nnnn2-c2ccccc2)nc1` 63.6 µM (inconclusive)

Look up EC50: `COc1ccc(-c2cc3c(=O)n(CC(=O)NCCCN4CCC(Cc5ccccc5)CC4)ncn3n2)cc1` 16.4 µM (active)

* * *

Target: Protein RecA (Mycobacterium tuberculosis)
Experiment: Fluorescence Cell-Free Homogeneous Dose Retest to Identify Inhibitors of RecA-Intein Splicing Activity. [Related pubchem assays (depositor defined):AID2097, AID2223, AID489010, AID492950]
Assay type: functional
The source made the active and inactive calls.
I would appreciate it if you answered using one of these outcomes: active, inactive

O=[N+]([O-])c1ccc2nc(Cl)nc(-c3ccccc3)c2c1 ... inactive

Query: recorded result category for CCOC(=O)C1CCC2(CC1)C(C#N)=C(N)Oc1[nH]nc(C)c12 (centres undefined) in this test inactive

Query: recorded result category for `COc1ccc(/C=C2/C(=O)N(c3ccccc3)N=C2C)c(OC)c1` in this test active

Query: recorded result category for `O=[N+]([O-])c1ccc(Sc2nnnn2-c2ccccc2)nc1` in this test active

Query: recorded result category for `CSc1nnc(NC(=O)c2nc(S(=O)(=O)Cc3ccccc3F)ncc2Cl)s1` in this test active

Query: recorded result category for CC(=O)NC(c1ccc(Cl)cc1)c1c(O)ccc2ccc(O)cc12 (centres undefined) in this test active

Query: recorded result category for `O=C(CN1C(=O)S/C(=C\C=C\c2ccccc2)C1=O)Nc1ccccc1C(=O)O` in this test active

Query: recorded result category for `CCCCCN1N=C(C)CC1=O` in this test active

* * *

Test: inhibitors of firefly luciferase expression or activity, dose response, H4 neuroglioma cells, luminescence (AID 1990)
Type: functional, cell-based
Active and inactive are the calls of the source.
attribute_measured: EC50

Here is how some compounds turned out for EC50.
C/C(CC(=O)Nc1ccccn1)=N\NC(=O)c1ccccc1O ... 14 µM (active)
CCOC(=O)c1cc(-c2ccccc2)sc1NC(=O)COC(=O)c1cccc(S(N)(=O)=O)c1 ... 13.4 µM (active)
O=C(COc1ccc([N+](=O)[O-])cc1)Nc1nc(-c2ccccn2)cs1 ... > 120 µM (not active)
Oc1ccc(Nc2nc3ccccc3nc2Nc2ccc(O)cc2)cc1 ... 21.4 µM (active)
CCCCNc1nc(NC)nc(Cl)c1SC ... > 120 µM (not active)
CCn1c(C)nc2cc(C(=O)N/N=C(\C)c3ccc(OC)cc3O)ccc21 ... 12.8 µM (active)
Cc1nc2cc(-c3cccc(F)c3)nn2c(C)c1CCC(=O)NC(C)CCc1ccco1 (stereo not drawn) ... 2.36 µM (active)

// below: EC50 requested for another compound
Look up EC50: `CCCN1CCC(=NNc2ccc(S(=O)(=O)N3CCOCC3)cc2[N+](=O)[O-])CC1` 11.1 µM (inconclusive)

* * *

System: BJ
Experiment: cytotoxicity toward BJ-TERT fibroblasts, dose response, cell-based, RAS-independent, luminescence (AID 1933)
Format: functional
Settings: Homo sapiens
Activity calls are given as the source filed them.
# EC50 annotations

Cn1cc(/C=N/n2cnc3scc(-c4ccc(Cl)cc4)c3c2=O)c2ccccc21 ... 1.07 µM (active)
COc1cc(O)oc1/C=N/c1ccc(C(=O)O)cc1 ... 13.7 µM (active)
COc1ccc(-c2cc3c(=O)n(CC(=O)NCCCN4CCC(Cc5ccccc5)CC4)ncn3n2)cc1 ... 10.1 µM (active)

Look up EC50: `CCN1/C(=C\C=C\C2=[N+](CC)c3ccccc3C2(C)C)C(C)(C)c2ccccc21.[O-][Cl+3]([O-])([O-])[O-]` 0.395 µM (inconclusive)

Look up EC50: `O=Nc1c2cc(-c3ccccc3)n[nH]c-2c2ccccc12` 6.53 µM (active)

Look up EC50: `O=C(O)COc1cccc(/C=C2/SC(=S)N(Cc3ccccc3)C2=O)c1` > 150 µM (not active)

Look up EC50: `O=C(O)CN1C(=O)/C(=C\c2cn(-c3ccccc3)nc2-c2ccccc2)SC1=S` 31.1 µM (active)

* * *

Biological target: Aminopeptidase N (Plasmodium falciparum FcB1/Columbia, UniProt O96935)
Sequence (O96935 whole entry): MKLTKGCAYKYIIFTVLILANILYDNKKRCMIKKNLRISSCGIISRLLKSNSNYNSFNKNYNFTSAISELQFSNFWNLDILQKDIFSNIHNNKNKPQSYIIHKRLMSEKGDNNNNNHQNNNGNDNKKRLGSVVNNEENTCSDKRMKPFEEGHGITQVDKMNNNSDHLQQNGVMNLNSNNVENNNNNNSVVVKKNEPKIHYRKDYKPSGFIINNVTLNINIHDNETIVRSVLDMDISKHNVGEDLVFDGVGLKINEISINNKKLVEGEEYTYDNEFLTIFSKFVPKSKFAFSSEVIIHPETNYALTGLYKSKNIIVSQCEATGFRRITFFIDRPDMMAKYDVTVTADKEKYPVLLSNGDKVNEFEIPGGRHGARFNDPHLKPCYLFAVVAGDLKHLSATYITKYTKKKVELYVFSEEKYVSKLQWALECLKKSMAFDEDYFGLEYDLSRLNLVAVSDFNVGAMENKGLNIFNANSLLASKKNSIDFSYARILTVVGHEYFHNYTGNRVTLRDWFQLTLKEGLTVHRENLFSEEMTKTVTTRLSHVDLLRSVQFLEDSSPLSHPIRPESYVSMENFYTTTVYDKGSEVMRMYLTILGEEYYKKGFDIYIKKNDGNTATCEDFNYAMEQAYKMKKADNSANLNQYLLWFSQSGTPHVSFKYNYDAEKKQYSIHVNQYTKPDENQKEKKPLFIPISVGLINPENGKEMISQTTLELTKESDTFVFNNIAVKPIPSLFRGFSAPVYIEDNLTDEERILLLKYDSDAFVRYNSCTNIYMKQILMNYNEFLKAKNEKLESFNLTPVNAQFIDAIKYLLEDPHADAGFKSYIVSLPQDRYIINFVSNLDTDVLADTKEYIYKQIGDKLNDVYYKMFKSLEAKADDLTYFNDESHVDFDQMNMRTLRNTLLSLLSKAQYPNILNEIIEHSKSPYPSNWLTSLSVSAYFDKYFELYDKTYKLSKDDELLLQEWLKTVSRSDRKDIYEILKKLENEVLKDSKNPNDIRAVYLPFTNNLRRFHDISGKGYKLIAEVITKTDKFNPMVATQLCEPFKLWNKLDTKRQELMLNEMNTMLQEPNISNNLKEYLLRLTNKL
Experiment: P. falciparum M1AAP inhibitors, biochemical, fluorogenic H-Leu-NHMec substrate, 1536-well (AID 1445)
Parameters: species or system Plasmodium falciparum 3D7, 3D7
The source made the active and inactive calls.
attribute_measured: IC50

Here is how some molecules turned out for IC50.
Cc1ccccc1N(CC(=O)NC(C)(C)C)C(=O)C[S+]([O-])CC(=O)Nc1ccc2c(c1)OCO2 (configuration not stated) ... 79.3 µM (active)
Cc1cc(NS(=O)(=O)c2ccc(NC(=O)CSc3nc(O)c4c(C)c(C)sc4n3)cc2)no1 ... 35.8 µM (active)
Cc1cccc(C(=O)NC2CCN(C(=S)NCc3ccco3)CC2)c1 ... 113 µM (active)
Cc1ccc(/C=C2\SC(NS(=O)(=O)c3cccs3)=NC2=O)cc1 ... 33.1 µM (active)
O=C(NC1CCN(C(=S)NCc2ccco2)CC1)c1cccc(F)c1 ... 79.9 µM (active)

Look up IC50: O=C(NCc1ccccc1)c1ccc2c(=O)[nH]c3c(C(=O)NCC4CCCO4)sc(=S)n3c2c1 (configuration not stated) 29.2 µM (active)

Look up IC50: `O=C(Cn1cnc([N+](=O)[O-])n1)N/N=C/c1cc(Cl)ccc1O` 13.3 µM (active)
